Form field: IC50 (one value per entry).
# test_system: Human M3 receptor (Homo sapiens, UniProt P20309)
# Sequence (P20309 whole entry): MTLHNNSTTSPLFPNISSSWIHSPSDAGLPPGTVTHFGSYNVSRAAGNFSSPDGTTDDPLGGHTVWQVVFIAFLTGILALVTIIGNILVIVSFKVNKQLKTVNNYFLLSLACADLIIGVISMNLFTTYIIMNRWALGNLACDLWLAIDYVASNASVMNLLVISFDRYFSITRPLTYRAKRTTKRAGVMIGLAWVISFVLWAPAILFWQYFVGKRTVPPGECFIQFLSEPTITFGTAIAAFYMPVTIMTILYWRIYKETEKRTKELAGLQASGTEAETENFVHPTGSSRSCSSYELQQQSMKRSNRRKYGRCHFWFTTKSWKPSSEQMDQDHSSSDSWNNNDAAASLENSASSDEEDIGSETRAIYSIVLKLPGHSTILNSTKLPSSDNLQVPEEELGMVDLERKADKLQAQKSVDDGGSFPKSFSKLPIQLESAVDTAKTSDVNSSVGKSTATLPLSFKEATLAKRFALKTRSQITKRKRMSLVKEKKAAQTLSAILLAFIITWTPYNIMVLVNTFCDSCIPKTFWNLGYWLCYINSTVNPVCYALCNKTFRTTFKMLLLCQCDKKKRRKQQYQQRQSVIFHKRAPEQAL

Example entries begin here.
| compound | IC50 |
| --- | --- |
| O=C(COc1cccc([C@](O)(C(=O)OCC2CCN(Cc3ccccc3)CC2)c2ccccc2)c1)N[C@H]1CCCN(C(=O)c2ccc(CCNC[C@H](O)c3ccc(O)c4[nH]c(=O)ccc34)cc2)C1 [Compound 106] | 0.3 to 3 nM |
| COc1c(CNC[C@H](O)c2ccc(O)c3[nH]c(=O)ccc23)ccc(C(=O)NCCCOc2cccc([C@](O)(C(=O)OCC3CCN(Cc4ccccc4)CC3)c3ccccc3)c2)c1F [Compound 32F] | 0.3 to 3 nM |
| COc1cc(CNC[C@H](O)c2ccc(O)c3[nH]c(=O)ccc23)ccc1C(=O)N[C@H]1C[C@H](NC(=O)COc2cccc([C@](O)(C(=O)OCC3CCN(Cc4ccccc4)CC3)c3ccccc3)c2)C1 [Compound 130] | 0.3 to 3 nM |

*Q* State IC50 on Human M3 receptor (Homo sapiens, UniProt P20309). Entry: O=C(NCc1ccc(COc2ccc(C(O)(C(=O)OCC3CCN(Cc4ccccc4)CC3)c3ccccc3)cc2)cc1)c1ccc(CNC[C@H](O)c2ccc(O)c3[nH]c(=O)ccc23)cc1 (stereo partly shown) [Compound 53, diformate]
*A* > 3 nM

*Q* State IC50 on Human M3 receptor (Homo sapiens, UniProt P20309). Entry: COc1cc(CNC[C@H](O)c2ccc(O)c3[nH]c(=O)ccc23)ccc1C(=O)N1CCC2(CCN(C(=O)COc3cccc([C@](O)(C(=O)OCC4CCN(Cc5ccccc5)CC4)c4ccccc4)c3)CC2)CC1 [Compound 81]
*A* 0.3 to 3 nM

*Q* State IC50 on Human M3 receptor (Homo sapiens, UniProt P20309). Entry: COc1cc(C(=O)NCC(=O)N2CCC(COc3cccc([C@](O)(C(=O)OCC4CCN(Cc5ccccc5)CC4)c4ccccc4)c3)CC2)ccc1CNC[C@H](O)c1ccc(O)c2[nH]c(=O)ccc12 [Compound 153]
*A* < 0.3 nM

* * *

# collection of IC50 values tested on Human β2 adrenoceptor (Homo sapiens, UniProt P07550)
# Sequence (P07550 whole entry): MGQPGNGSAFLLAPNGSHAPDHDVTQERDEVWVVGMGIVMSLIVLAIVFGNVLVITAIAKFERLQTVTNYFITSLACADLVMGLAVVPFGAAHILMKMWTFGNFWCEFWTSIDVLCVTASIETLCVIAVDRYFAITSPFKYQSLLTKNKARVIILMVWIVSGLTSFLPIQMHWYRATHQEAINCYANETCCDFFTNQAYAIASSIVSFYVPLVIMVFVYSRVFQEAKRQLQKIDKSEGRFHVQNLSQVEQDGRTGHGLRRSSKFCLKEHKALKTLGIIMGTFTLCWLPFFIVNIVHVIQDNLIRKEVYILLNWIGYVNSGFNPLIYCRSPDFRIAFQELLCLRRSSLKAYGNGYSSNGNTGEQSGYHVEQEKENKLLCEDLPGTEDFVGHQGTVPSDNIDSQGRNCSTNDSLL

| compound | recorded_value |
| --- | --- |
| O=C(COc1cccc([C@](O)(C(=O)OCC2CCN(Cc3ccccc3)CC2)c2ccccc2)c1)N[C@H]1C[C@H](NC(=O)c2ccc(CNC[C@H](O)c3ccc(O)c4[nH]c(=O)ccc34)c(Cl)c2)C1 | < 0.3 nM |
| O=C(COc1cccc([C@](O)(C(=O)OCC2CCN(Cc3ccccc3)CC2)c2ccccc2)c1)N[C@H]1CC[C@H](C(=O)N2CCC(CNC[C@H](O)c3ccc(O)c4[nH]c(=O)ccc34)CC2)CC1 | 0.3 to 3 nM |
| CN1CCC(OC(=O)[C@](O)(c2ccccc2)c2cccc(OCCCCCNC[C@H](O)c3ccc(O)c4[nH]c(=O)ccc34)c2)CC1 | < 0.3 nM |
| O=C(OCC1CCN(Cc2ccccc2)CC1)C(O)(c1ccccc1)c1ccc(OCCCCCNC[C@H](O)c2ccc(O)c3[nH]c(=O)ccc23)cc1 (some centres unmarked) [Compound 51, diformate] | < 0.3 nM |

Then there is this compound:
*Q* State IC50 on Human β2 adrenoceptor (Homo sapiens, UniProt P07550). Entry: O=C(NCCCOc1cccc([C@](O)(C(=O)OCC2CCN(Cc3ccccc3)CC2)c2ccccc2)c1)c1ccc(CNC[C@H](O)c2ccc(O)c3[nH]c(=O)ccc23)c(F)c1F [Compound 32L]
*A* > 3 nM
